Below: a set of entries, each annotated with reported IC50.
# assayed.system: Androgen Receptor (AR) in the LNCaP prostate carcinoma cell line (Homo sapiens, UniProt P10275, T878A)
# Construct: cell based immuno-fluorescence assay using the LNCaP prostate epithelial cell line; host or cells: LNCaP clone FGC
# Sequence (P10275 whole entry T878A): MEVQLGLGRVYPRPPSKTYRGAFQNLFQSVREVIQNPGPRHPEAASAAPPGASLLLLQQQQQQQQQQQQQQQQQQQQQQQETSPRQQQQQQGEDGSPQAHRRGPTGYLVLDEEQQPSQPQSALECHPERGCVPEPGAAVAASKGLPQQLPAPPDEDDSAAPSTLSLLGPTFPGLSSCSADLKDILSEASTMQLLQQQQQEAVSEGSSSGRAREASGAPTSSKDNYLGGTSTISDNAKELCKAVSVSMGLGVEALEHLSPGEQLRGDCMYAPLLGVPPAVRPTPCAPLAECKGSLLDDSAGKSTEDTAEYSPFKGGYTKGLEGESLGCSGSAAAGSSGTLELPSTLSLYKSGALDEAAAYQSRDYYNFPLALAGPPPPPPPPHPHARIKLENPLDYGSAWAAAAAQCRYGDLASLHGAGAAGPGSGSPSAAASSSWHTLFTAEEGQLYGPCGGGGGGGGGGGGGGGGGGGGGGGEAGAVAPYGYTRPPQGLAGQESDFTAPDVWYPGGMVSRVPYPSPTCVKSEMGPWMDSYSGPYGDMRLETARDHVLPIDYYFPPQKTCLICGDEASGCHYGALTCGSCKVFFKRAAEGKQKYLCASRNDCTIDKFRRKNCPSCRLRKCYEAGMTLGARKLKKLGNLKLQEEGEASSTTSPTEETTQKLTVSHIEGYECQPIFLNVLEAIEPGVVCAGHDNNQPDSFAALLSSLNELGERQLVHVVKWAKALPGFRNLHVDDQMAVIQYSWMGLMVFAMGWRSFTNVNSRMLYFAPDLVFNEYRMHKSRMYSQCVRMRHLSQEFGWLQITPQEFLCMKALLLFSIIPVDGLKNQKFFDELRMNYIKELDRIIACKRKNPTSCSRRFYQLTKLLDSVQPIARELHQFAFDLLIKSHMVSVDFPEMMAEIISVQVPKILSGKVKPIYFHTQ
# assay: LNCaP Androgen Receptor Down-Regulation Cell Assay (immunofluorescence end point)
# Assay type: cell-based
# condition.summary: LNCaP cells, compound incubation 20-22 hours, concentration giving 50% reduction of the AR signal
measurement.type: IC50

- CS(=O)(=O)N1CCN(CCOc2ccc(N3CCN(C4=Nn5c(nnc5C(F)(F)F)CC4)CC3)cc2)CC1: 23 µM
- CN(CCO)C(=O)COc1ccc(C2CCN(C3=Nn4c(nnc4C(F)(F)F)CC3)CC2)cc1: 26 µM
- C[C@H]1C(=O)N(C)CCN1CCOc1ccc(C2CCN(C3=Nn4c(nnc4C(F)(F)F)CC3)CC2)cc1: 0.76 µM
